# key: entry, value: pEC50
Biological target: human mGluR5A (Homo sapiens (Human), UniProt P41594)
Sequence (P41594 other isoform, or with tags, fused parts or gaps): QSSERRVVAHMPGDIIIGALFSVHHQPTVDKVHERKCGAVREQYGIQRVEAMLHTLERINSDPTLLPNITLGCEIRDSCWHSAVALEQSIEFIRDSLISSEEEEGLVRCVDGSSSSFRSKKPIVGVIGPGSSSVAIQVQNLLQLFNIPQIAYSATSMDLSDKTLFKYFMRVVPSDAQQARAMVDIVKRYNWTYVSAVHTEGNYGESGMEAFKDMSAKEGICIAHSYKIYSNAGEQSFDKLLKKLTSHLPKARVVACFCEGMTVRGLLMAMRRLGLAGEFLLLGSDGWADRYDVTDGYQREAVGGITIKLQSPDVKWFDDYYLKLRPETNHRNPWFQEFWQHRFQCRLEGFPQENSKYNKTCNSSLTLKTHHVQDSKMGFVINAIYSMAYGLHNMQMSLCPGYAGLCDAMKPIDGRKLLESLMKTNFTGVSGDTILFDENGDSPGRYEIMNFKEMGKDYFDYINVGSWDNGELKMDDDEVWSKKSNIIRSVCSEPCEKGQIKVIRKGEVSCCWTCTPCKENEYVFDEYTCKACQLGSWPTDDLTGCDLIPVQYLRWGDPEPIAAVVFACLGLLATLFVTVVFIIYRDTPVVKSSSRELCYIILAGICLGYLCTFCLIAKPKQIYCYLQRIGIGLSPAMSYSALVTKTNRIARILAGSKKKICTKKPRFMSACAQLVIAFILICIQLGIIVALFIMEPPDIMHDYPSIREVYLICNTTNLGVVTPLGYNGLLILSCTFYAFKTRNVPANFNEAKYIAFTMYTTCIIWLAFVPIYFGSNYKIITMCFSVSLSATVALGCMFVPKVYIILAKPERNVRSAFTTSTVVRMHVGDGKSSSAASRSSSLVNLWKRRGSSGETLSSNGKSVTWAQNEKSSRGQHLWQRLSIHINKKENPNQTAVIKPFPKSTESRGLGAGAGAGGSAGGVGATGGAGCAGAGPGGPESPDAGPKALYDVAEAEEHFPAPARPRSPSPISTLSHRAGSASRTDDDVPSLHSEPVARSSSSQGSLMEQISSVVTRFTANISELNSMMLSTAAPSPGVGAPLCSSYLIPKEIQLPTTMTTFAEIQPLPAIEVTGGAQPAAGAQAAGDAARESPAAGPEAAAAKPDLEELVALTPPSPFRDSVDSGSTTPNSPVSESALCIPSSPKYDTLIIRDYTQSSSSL
Experiment: mGluR5 FLIPR Assay
Settings: positive modulator activity, HEK293 (ZF) cells with human mGluR5A and rat GLAST, Ca++ response to ~EC10 l-glutamate
pEC50: −log10 of the molar value.

Worked set:
[
  {
    "Compound": "O=C1N[C@H](c2cncc(C#CC34CCCCC3C4)c2)[C@@H](c2cccc(F)c2)O1 (stereo partly shown) [Example 90]",
    "Observed Result": 6.42
  },
  {
    "Compound": "O=C1N[C@H](c2cncc(C#CCN3CCCC3=O)c2)[C@@H](c2cccc(F)c2)O1 [Example 47]",
    "Observed Result": "< 5.79"
  },
  {
    "Compound": "O=C1N[C@H](c2cc(C#CC3CC(F)(F)C3)ccn2)[C@@H](c2ccccc2)O1 [Example 112]",
    "Observed Result": "< 5.49"
  }
]

Alright, here's another compound for you.
Asked: Look at this compound and give its reported pEC50. O=C1N[C@H](c2cncc(C#CCc3ccccc3)c2)[C@@H](c2cccc(F)c2)O1 [Example 43]
Given back: < 5.79
